system: Phospho-Rb Ser807/811 in OVCAR3 cells; test: OVCAR3 Phospho-Rb Ser807/811 HTRF assay; type: cell-based; details: Homo sapiens, OVCAR-3, 1 h, OVCAR3 cells, Phospho-Rb Ser807/811 HTRF, 1 hour incubation; read-out: pRb-OVCAR3 IC50
Measurement type: IC50 (nM)

Some compounds with recorded IC50:
In [3]: df
Out[3]:
                                   compound  measured
0  CC(C)NC(=O)O[C@@H]1CC[C@H](c2cc(NC(=O)c3cc(C(=O)Nc4cccc(O)c4C=O)nn3C)n[nH]2)C1       915
1  COc1cc(O)c(C=O)c(OCC(=O)Nc2cc([C@H]3CC[C@@H](OC(=O)N4NC5CCC4C5)C3)[nH]n2)c1 (stereo partly shown)      29.5
2  CCc1cc(O)c(C=O)c(OCC(=O)Nc2cc([C@H]3CC[C@@H](OC(=O)NC4(C)CC4)C3)[nH]n2)c1       100
3  COCC1(NC(=O)O[C@@H]2CC[C@H](c3cc(NC(=O)COc4cc(OC)cc(O)c4C=O)n[nH]3)C2)CC1      28.7
4  COc1cc(O)c(C=O)c(OCC(=O)Nc2cc([C@H]3CC[C@@H](OC(=O)N4CCOCC45CC5)C3)[nH]n2)c1      26.3

1 = CC(C)NC(=O)O[C@@H]1CC[C@H](c2cc(Nc3cc(OCc4cccc(O)c4C=O)ccn3)n[nH]2)C1
2 = COc1cc(O)c(C=O)c(OCC(=O)Nc2cc([C@H]3CC[C@@H](OC(=O)N4CCC(F)(F)C4)C3)[nH]n2)c1
Ask | Field: entry with larger IC50 (options 1 / 2 ). # answer = label of selected item
Reply | 1

---

target: CDK2-NanoLuc fusion with CCNE1 in 293T or 293 cells (Homo sapiens, UniProt P24941); construct: host or cells: 293T (ATCC CRL-3216) or 293 (ATCC CRL-1573); experiment: NanoBRET Target Engagement (TE) Intracellular Kinase Assay, CDK2/CCNE1; format: cell-based; settings: NanoBRET TE intracellular kinase assay, 2-hour incubation, read-out: NanoBRET-CDK2/E1 IC50
Measurement type: IC50 (nM)

Compound	Tested on	IC50 [nM]
CC(C)NC(=O)O[C@@H]1CC[C@H](c2cc(NC(=O)c3cc(CCc4cccc(O)c4C=O)nn3C)n[nH]2)C1	CDK2-NanoLuc fusion with CCNE1 in 293T or 293 cells (Homo sapiens, UniProt P24941)	17.8
COc1cc(O)c(C=O)c2c1CC(C(=O)Nc1cc([C@H]3CC[C@@H](OC(=O)NN(C)CC(F)(F)F)C3)[nH]n1)C2 (single isomer, unassigned) [Compound 264]	CDK2-NanoLuc fusion with CCNE1 in 293T or 293 cells (Homo sapiens, UniProt P24941)	5.95
COc1cc(O)c(C=O)c(OCC(=O)Nc2cc([C@H]3CC[C@@H](OC(=O)N(C)C(C)C)C3)[nH]n2)c1	CDK2-NanoLuc fusion with CCNE1 in 293T or 293 cells (Homo sapiens, UniProt P24941)	1.42
C#Cc1cccc(-c2cc(C(=O)Nc3cc([C@H]4CC[C@@H](OC(=O)NC(C)C)C4)[nH]n3)n(C)n2)c1C=O	CDK2-NanoLuc fusion with CCNE1 in 293T or 293 cells (Homo sapiens, UniProt P24941)	21.7

A = C#C[C@@H]1CCCN1C(=O)O[C@@H]1CC[C@H](c2cc(NC(=O)COc3cc(OC)cc(O)c3C=O)n[nH]2)C1
B = Cc1cc(O)c(C=O)c(OCC(=O)Nc2cc([C@H]3CC[C@@H](OC(=O)NC4(C#N)CC4)C3)[nH]n2)c1
Ask | Quick one: lower IC50, A or B ? Please respond with the label that marks your chosen entry.
Reply | A

I = CCCONC(=O)O[C@@H]1CC[C@H](c2cc(NC(=O)COc3cc(OC)cc(O)c3C=O)n[nH]2)C1
II = CC(C)NC(=O)O[C@@H]1CC[C@H](c2cc(NC(=O)COc3cc(-n4cccn4)cc(O)c3C=O)n[nH]2)C1
Ask | Form field 'greater IC50' accepts I or II ; which applies? Bench note: the answer is the label of the chosen record.
Reply | II
(II: 10.5 nM, I: 3.41 nM)

a = COc1cc(O)c(C=O)c(OCC(=O)Nc2cc([C@H]3CC[C@@H](OC(=O)N(C)N(C)C)C3)[nH]n2)c1
b = CC(C)NC(=O)O[C@@H]1CC[C@H](c2cc(NC(=O)COc3cc(C#N)cc(O)c3C=O)n[nH]2)C1
Ask | Which record would sort first by descending IC50, a or b ? Please reply using the label of the selected record.
Reply | b
(b: 98.9 nM, a: 3.95 nM)
